targetDesc: Cholesterol side-chain cleavage enzyme, mitochondrial (Bos taurus)
Sequence (P00189 whole entry): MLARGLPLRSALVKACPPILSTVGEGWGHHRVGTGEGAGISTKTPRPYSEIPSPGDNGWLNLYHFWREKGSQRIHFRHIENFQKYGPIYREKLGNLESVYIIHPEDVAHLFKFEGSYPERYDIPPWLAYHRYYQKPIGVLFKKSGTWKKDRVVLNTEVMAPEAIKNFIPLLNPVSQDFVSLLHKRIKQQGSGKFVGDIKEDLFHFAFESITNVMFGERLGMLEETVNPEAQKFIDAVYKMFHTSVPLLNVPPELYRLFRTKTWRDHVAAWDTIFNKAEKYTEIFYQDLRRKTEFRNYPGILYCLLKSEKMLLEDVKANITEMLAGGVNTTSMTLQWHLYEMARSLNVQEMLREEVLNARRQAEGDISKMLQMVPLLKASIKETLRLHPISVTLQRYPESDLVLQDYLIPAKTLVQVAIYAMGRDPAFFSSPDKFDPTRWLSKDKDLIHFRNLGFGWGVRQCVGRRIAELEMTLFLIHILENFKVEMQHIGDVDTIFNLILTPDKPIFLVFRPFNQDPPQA
experiment: Inhibition of bovine adrenal desmolase at 25 uM
setupConditions: cattle
propertyMeasured: inhibition at 25 µM (%)
Quick reminder: number only, in %, skip the unit.

Observe how each entry below is paired with its result.
> print(dat)
                                   molecule                                targetdesc     propertymeasured  quantityunit  endpointresult
1  Nc1ccc(C2(C3CCCC3)CCC(=O)NC2=O)cc1 (centres undefined)  Cholesterol side-chain cleavage enzyme, mitochondrial (Bos taurus)  inhibition at 25 µM             %              59
2  CCC1(c2ccc(N)cc2)CCC(=O)NC1=O (centres undefined) [AMINOGLUTETHIMIDE]  Cholesterol side-chain cleavage enzyme, mitochondrial (Bos taurus)  inhibition at 25 µM             %              57
3         CC[C@@]1(c2ccc(N)cc2)CCC(=O)NC1=O  Cholesterol side-chain cleavage enzyme, mitochondrial (Bos taurus)  inhibition at 25 µM             %              36

Exercise: Look at this molecule and give its reported inhibition at 25 µM. CC[C@]1(c2ccc(N)cc2)CCC(=O)NC1=O
Key: 67
